Biological target: T1, alpha-amylase (Homo sapiens, UniProt P0DUB6 P0DUB6:16-511)
T1 sequence: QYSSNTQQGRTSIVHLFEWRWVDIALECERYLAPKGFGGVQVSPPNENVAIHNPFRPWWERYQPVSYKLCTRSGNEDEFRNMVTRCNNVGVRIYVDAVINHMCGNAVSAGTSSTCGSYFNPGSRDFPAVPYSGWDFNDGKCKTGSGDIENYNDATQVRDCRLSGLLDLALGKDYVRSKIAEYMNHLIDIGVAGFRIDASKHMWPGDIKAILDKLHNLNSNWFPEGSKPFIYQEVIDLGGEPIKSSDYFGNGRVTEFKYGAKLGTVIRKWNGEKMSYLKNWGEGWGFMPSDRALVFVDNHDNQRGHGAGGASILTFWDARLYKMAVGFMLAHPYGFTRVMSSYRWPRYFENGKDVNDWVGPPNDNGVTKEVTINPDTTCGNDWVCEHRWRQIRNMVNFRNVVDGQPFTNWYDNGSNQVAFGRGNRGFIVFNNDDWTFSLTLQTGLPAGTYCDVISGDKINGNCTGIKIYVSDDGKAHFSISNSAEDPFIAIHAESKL
Assay: SPR; SPR buffer with 1 mM MgCl2, pH 7.4; Chi2 30.79
Conditions: tags: none stated; commercial human alpha-amylase, Lee Biosolutions; label: 3' poly(dA)20 captured on biotin-poly(dT)20
pKd: −log10 of the molar value.

{"binder": "AML1243KR8m3s63Fw_s15 (ssDNA, KS9 modified T (formula 1) at underlined T, i.e. T 3' of the 5' primer region) DNA: TAACGCCGCCTATTGCGAGGTGTGGCTAGTCGTTATAGGTCCACCGAGTTGCACCAAAAAAAAAAAAAAAAAAAA", "pKd": 7.73}
